assay-name: in vitro
assay-context: bmg-1 cells
So I've got a bunch of compounds here, and I need their viability at 100 µM values.
The figure you give is taken to be in %; do not add the unit.

*Q* # return recorded viability at 100 µM for input COc1ccc(-c2nc3cc(-c4nc5cc(N6CCN(C)CC6)ccc5[nH]4)ccc3[nH]2)cc1OC
*A* 73

*Q* Identify measured viability at 100 µM associated with COc1cc(-c2nc3cc(-c4nc5cc(-c6nc7cc(N8CCN(C)CC8)ccc7[nH]6)ccc5[nH]4)ccc3[nH]2)ccc1O
*A* 92

----------
assay-name: in vitro
assay-context: bmg-1 cells
test-readout: cytotoxicity at 100 µM (%)
State just the number; it will be interpreted in %.

*Q* Report measured cytotoxicity at 100 µM; entry is COc1cc(-c2nc3cc(-c4nc5cc(-c6nc7cc(N8CCN(C)CC8)ccc7[nH]6)ccc5[nH]4)ccc3[nH]2)ccc1O [TBZ]
*A* 9
